- assay notes: self-splicing fitness, log relative to wild type (ln ratio); higher = more splicing; Tetrahymena group I intron in knt gene, E. coli kanamycin selection, DiMSum; sequences stand for … in CUCUCU…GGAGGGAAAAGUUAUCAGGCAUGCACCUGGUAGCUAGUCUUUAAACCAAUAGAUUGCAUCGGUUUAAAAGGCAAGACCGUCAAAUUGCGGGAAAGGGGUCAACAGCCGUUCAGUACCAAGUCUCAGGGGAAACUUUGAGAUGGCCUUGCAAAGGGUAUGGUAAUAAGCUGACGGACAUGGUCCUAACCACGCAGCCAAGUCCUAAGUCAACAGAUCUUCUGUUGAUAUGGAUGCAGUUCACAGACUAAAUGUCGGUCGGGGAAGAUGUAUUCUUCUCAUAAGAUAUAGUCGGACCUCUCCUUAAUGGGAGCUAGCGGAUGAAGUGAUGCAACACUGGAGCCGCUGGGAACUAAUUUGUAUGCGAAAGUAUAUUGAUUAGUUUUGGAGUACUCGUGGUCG;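 further: selection with 25 µg/mL kanamycin versus none on LB agar overnight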
- condition set: 37 °C
recorded endpoint: self-splicing fitness (ln)

[[record]]
construct_sequence = "UGCCAGCAAUAUUACGUUAU"
recorded_endpoint = "self-splicing fitness (ln)"
obs_value = -0.982

[[record]]
construct_sequence = "CAAGAGCAAUAUUACGGCGG"
recorded_endpoint = "self-splicing fitness (ln)"
obs_value = -0.283

[[record]]
construct_sequence = "AAUUAGCAAUAUUACGGCGC"
recorded_endpoint = "self-splicing fitness (ln)"
obs_value = -0.211

[[record]]
construct_sequence = "GGGAAGCAAUAUUACGGUAC"
recorded_endpoint = "self-splicing fitness (ln)"
obs_value = -1.08

[[record]]
construct_sequence = "UUACAGCAAUAUUACGCUCC"
recorded_endpoint = "self-splicing fitness (ln)"
obs_value = -1.3

[[record]]
construct_sequence = "GGUUAGCAAUAUUACGCCAA"
recorded_endpoint = "self-splicing fitness (ln)"
obs_value = -2.43

[[record]]
construct_sequence = "UCGAAGCAAUAUUACGUUGA"
recorded_endpoint = "self-splicing fitness (ln)"
obs_value = -2.63

[[record]]
construct_sequence = "AUUUAGCAAUAUUACGUACU"
recorded_endpoint = "self-splicing fitness (ln)"
obs_value = -0.13

[[record]]
construct_sequence = "ACCUAGCAAUAUUACGAUAA"
recorded_endpoint = "self-splicing fitness (ln)"
obs_value = -2.1

[[record]]
construct_sequence = "AAGUAGCAAUAUUACGGUCC"
recorded_endpoint = "self-splicing fitness (ln)"
obs_value = -0.239

